PBM E-score for assorted sequences
Molecular target: Upc2 (UniProt Q12151)
Sequence: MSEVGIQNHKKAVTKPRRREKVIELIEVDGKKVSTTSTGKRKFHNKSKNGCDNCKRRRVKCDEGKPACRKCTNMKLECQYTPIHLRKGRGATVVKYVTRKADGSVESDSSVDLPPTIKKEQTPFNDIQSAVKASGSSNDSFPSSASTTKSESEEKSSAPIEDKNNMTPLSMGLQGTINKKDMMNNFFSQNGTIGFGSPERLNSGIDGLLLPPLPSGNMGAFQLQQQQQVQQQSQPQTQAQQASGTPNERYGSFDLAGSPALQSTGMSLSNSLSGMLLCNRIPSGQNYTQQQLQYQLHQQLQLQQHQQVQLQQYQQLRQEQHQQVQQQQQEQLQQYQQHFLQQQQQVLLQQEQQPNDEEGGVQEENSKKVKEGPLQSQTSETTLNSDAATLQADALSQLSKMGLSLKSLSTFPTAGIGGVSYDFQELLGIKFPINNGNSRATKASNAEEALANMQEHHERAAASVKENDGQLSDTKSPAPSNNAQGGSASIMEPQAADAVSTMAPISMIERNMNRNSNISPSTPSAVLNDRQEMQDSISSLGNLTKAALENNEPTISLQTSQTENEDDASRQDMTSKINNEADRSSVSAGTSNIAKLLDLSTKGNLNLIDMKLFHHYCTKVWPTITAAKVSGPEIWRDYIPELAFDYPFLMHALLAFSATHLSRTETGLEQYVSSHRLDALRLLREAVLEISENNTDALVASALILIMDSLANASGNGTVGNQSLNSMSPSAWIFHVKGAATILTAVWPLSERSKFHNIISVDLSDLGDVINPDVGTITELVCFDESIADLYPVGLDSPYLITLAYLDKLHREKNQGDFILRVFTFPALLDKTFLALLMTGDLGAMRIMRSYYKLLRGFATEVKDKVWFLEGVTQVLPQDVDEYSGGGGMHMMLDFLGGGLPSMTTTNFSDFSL
Assay: PBM E-score (8-mer binding enrichment) (E-score (-0.5 to 0.5)); higher = stronger / more preferred TF binding
Settings: protein concentration: 200 nM; construct: GST-full length
Over roughly 33,000 sequences, “E-score (-0.5 to 0.5)” has its median near -0.043; the highest 2% begin near 0.37. Many of the other results were omitted from the sample, so the highest values are more common in it than they were.

| SEQUENCE CONTENT | PBM E-score |
| --- | --- |
| AGAATCAG | -0.0805 |
| AAACGAGT | 0.477 |
| ATGGTACG | 0.388 |
| ACGACGGA | 0.37 |
| CCGACGAA | 0.067 |
| CAACGAAG | 0.235 |
| AATCAAAA | -0.0286 |
| CAACGAGG | 0.278 |
| ATCATCTA | -0.0847 |
| ATGGTACC | -0.257 |
| ACCTAAGA | 0.0242 |
| CAGGTACG | 0.396 |
| CAGCACAA | 0.0156 |
| AAGGTACT | 0.00877 |
| TAACGAAA | 0.334 |
| AATCGAGT | 0.0695 |
| GCTTACAA | -0.0171 |
| ACTTACGC | -0.0998 |
| AAACGAAA | 0.46 |
| CAACGAAA | 0.221 |
| CCGACGGA | -0.0042 |
| CCTTACGA | 0.407 |
| AAACGAGG | 0.481 |
| AAGCGATA | 0.205 |
| ATTGTATC | -0.2 |
| TAATGTAA | -0.0142 |
| GCTTACGA | 0.421 |
| GCGACGGA | 0.0438 |
| AGTCGTAA | 0.379 |
| GTGCTCGA | 0.0349 |
| TGTCGGAA | 0.0576 |
| TAACGAGA | 0.391 |
| GATCTCCC | -0.162 |
| ACGACGTG | 0.351 |
| AGTGCAGC | -0.22 |
| GCTTACTA | -0.0799 |
| AGAGTGCC | -0.209 |
| AGGTTCGG | 0.022 |
| AAACGAAT | 0.451 |
